Measured values drawn from patent US8501786B2 for this set.

target: human β3 adrenergic receptor (Homo sapiens, UniProt P13945); construct: stably transfected with the cloned β-adrenergic receptor (β1, β2 or β3); expressed in transfected cells; host or cells: Chinese hamster ovary (CHO) cells, stably transfected; assay: Functional assay: cAMP production (LANCE TR-FRET) in CHO cells stably transfected with cloned β3 adrenergic receptor; assay type: cell-based; details: Table 2; cAMP production, CHO cells expressing human β3 AR; read-out: Human β3 functional
Sequence (P13945 whole entry): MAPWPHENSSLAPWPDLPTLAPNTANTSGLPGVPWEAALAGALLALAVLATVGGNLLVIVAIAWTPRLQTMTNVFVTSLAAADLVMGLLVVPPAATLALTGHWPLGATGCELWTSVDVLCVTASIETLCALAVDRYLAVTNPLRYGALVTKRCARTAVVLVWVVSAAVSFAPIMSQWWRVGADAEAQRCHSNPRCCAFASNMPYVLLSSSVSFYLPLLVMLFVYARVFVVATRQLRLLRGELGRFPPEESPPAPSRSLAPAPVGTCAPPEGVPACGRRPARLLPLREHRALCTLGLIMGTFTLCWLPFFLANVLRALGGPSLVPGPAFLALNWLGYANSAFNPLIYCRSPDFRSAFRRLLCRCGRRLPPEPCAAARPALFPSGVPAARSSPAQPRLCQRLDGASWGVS
experimental-readout: EC50

[
  {
    "molecule": "O=C(Cc1nnc(-c2ccc(Cl)cc2)[nH]1)Nc1ccc(CC2CC[C@H]([C@H](O)c3cccnc3)N2)cc1 (stereo partly drawn)",
    "experimental-readout": "EC50",
    "result": "11 to 100 nM"
  },
  {
    "molecule": "O=C(Cn1ccc(=O)[nH]c1=O)Nc1ccc(CC2CC[C@H]([C@H](O)c3cccnc3)N2)cc1 (stereo partly drawn)",
    "experimental-readout": "EC50",
    "result": "1 to 10 nM"
  },
  {
    "molecule": "O=C(Nc1ccc(CC2CC[C@H]([C@H](O)c3cccnc3)N2)cc1)c1ccccc1-c1ncc[nH]1 (stereo partly drawn)",
    "experimental-readout": "EC50",
    "result": "11 to 100 nM"
  },
  {
    "molecule": "O=C(Nc1ccc(CC2CC[C@H]([C@H](O)c3cccnc3)N2)cc1)[C@@H]1CCCN1c1nccs1 (stereo partly drawn)",
    "experimental-readout": "EC50",
    "result": "1 to 10 nM"
  },
  {
    "molecule": "O=C(Cc1csc(=S)[nH]1)Nc1ccc(CC2CC[C@H]([C@H](O)c3cccnc3)N2)cc1 (stereo partly drawn)",
    "experimental-readout": "EC50",
    "result": "11 to 100 nM"
  },
  {
    "molecule": "O=C(Cc1nnc(-c2ccncc2)[nH]1)Nc1ccc(CC2CC[C@H]([C@H](O)c3cccnc3)N2)cc1 (stereo partly drawn)",
    "experimental-readout": "EC50",
    "result": "11 to 100 nM"
  },
  {
    "molecule": "COc1cc2ncn(CC(=O)Nc3ccc(CC4CC[C@H]([C@H](O)c5cccnc5)N4)cc3)c(=O)c2cc1OC (stereo partly drawn)",
    "experimental-readout": "EC50",
    "result": "1 to 10 nM"
  },
  {
    "molecule": "O=C(Cn1nccn1)Nc1ccc(CC2CC[C@H]([C@H](O)c3cccnc3)N2)cc1 (stereo partly drawn)",
    "experimental-readout": "EC50",
    "result": "11 to 100 nM"
  },
  {
    "molecule": "O=C(O)CCC(=O)Nc1ccc(CC2CC[C@H]([C@H](O)c3cccnc3)N2)cc1 (stereo partly drawn)",
    "experimental-readout": "EC50",
    "result": "101 to 1000 nM"
  },
  {
    "molecule": "O=C(Cn1nc(Cl)ccc1=O)Nc1ccc(CC2CC[C@H]([C@H](O)c3cccnc3)N2)cc1 (stereo partly drawn)",
    "experimental-readout": "EC50",
    "result": "11 to 100 nM"
  },
  {
    "molecule": "O=C(Cc1ncccn1)Nc1ccc(CC2CC[C@H]([C@H](O)c3cccnc3)N2)cc1 (stereo partly drawn)",
    "experimental-readout": "EC50",
    "result": "11 to 100 nM"
  },
  {
    "molecule": "Cn1ncc2ncn(CC(=O)Nc3ccc(CC4CC[C@H]([C@H](O)c5cccnc5)N4)cc3)c(=O)c21 (stereo partly drawn)",
    "experimental-readout": "EC50",
    "result": "1 to 10 nM"
  },
  {
    "molecule": "O=C(Cn1cnccc1=O)Nc1ccc(CC2CC[C@H]([C@H](O)c3cccnc3)N2)cc1 (stereo partly drawn)",
    "experimental-readout": "EC50",
    "result": "1 to 10 nM"
  },
  {
    "molecule": "O=C(Nc1ccc(CC2CC[C@H]([C@H](O)c3cccnc3)N2)cc1)c1ccccc1CCc1ccccc1 (stereo partly drawn)",
    "experimental-readout": "EC50",
    "result": "11 to 100 nM"
  },
  {
    "molecule": "O=C(Cc1csc(-c2cccnc2)n1)Nc1ccc(CC2CC[C@H]([C@H](O)c3cccnc3)N2)cc1 (stereo partly drawn)",
    "experimental-readout": "EC50",
    "result": "1 to 10 nM"
  },
  {
    "molecule": "CN1CCCN(CC(=O)Nc2ccc(CC3CC[C@H]([C@H](O)c4cccnc4)N3)cc2)C1=O (stereo partly drawn)",
    "experimental-readout": "EC50",
    "result": "101 to 1000 nM"
  },
  {
    "molecule": "O=C(Cn1cnc2ccccc2c1=O)Nc1ccc(CC2CC[C@H]([C@H](O)c3cccnc3)N2)cc1 (single isomer, unassigned) [Example 64]",
    "experimental-readout": "EC50",
    "result": "1 to 10 nM"
  },
  {
    "molecule": "O=C(Cc1ccccn1)Nc1ccc(CC2CC[C@H]([C@H](O)c3cccnc3)N2)cc1 (stereo partly drawn)",
    "experimental-readout": "EC50",
    "result": "11 to 100 nM"
  },
  {
    "molecule": "O=C(Cc1nnn[nH]1)Nc1ccc(CC2CC[C@H]([C@H](O)c3cccnc3)N2)cc1 (stereo partly drawn)",
    "experimental-readout": "EC50",
    "result": "11 to 100 nM"
  },
  {
    "molecule": "Cc1nn(C)c(O)c1CC(=O)Nc1ccc(CC2CC[C@H]([C@H](O)c3cccnc3)N2)cc1 (stereo partly drawn)",
    "experimental-readout": "EC50",
    "result": "101 to 1000 nM"
  },
  {
    "molecule": "Cc1cccc(CC(=O)Nc2ccc(CC3CC[C@H]([C@H](O)c4cccnc4)N3)cc2)n1 (stereo partly drawn)",
    "experimental-readout": "EC50",
    "result": "101 to 1000 nM"
  },
  {
    "molecule": "O=C(Cn1[nH]c(=O)c2ccccc2c1=O)Nc1ccc(CC2CC[C@H]([C@H](O)c3cccnc3)N2)cc1 (stereo partly drawn)",
    "experimental-readout": "EC50",
    "result": "11 to 100 nM"
  },
  {
    "molecule": "O=C(Cc1ccccc1F)Nc1ccc(CC2CC[C@H]([C@H](O)c3cccnc3)N2)cc1 (stereo partly drawn)",
    "experimental-readout": "EC50",
    "result": "11 to 100 nM"
  },
  {
    "molecule": "O=C(Cc1cccc(F)c1F)Nc1ccc(CC2CC[C@H]([C@H](O)c3cccnc3)N2)cc1 (stereo partly drawn)",
    "experimental-readout": "EC50",
    "result": "11 to 100 nM"
  },
  {
    "molecule": "Cc1nonc1CC(=O)Nc1ccc(CC2CC[C@H]([C@H](O)c3cccnc3)N2)cc1 (stereo partly drawn)",
    "experimental-readout": "EC50",
    "result": "11 to 100 nM"
  },
  {
    "molecule": "O=C(Cn1nc2ccccc2n1)Nc1ccc(CC2CC[C@H]([C@H](O)c3cccnc3)N2)cc1 (stereo partly drawn)",
    "experimental-readout": "EC50",
    "result": "11 to 100 nM"
  },
  {
    "molecule": "CNc1ncncc1CC(=O)Nc1ccc(CC2CC[C@H]([C@H](O)c3cccnc3)N2)cc1 (stereo partly drawn)",
    "experimental-readout": "EC50",
    "result": "101 to 1000 nM"
  },
  {
    "molecule": "COc1ncncc1CC(=O)Nc1ccc(CC2CC[C@H]([C@H](O)c3cccnc3)N2)cc1 (stereo partly drawn)",
    "experimental-readout": "EC50",
    "result": "11 to 100 nM"
  },
  {
    "molecule": "O=C(Nc1ccc(CC2CC[C@H]([C@H](O)c3cccnc3)N2)cc1)c1c[nH]c2cccnc12 (stereo partly drawn)",
    "experimental-readout": "EC50",
    "result": "101 to 1000 nM"
  },
  {
    "molecule": "O=C(CN1C(=O)CCC1=O)Nc1ccc(CC2CC[C@H]([C@H](O)c3cccnc3)N2)cc1 (stereo partly drawn)",
    "experimental-readout": "EC50",
    "result": "11 to 100 nM"
  }
]
